Data provenance: patent US20060063818A1

target: proTNF-α convertase enzyme (TACE) (Homo sapiens, UniProt P78536); construct: a partially purified, isolated enzyme assay, the enzyme being obtained from the membranes of TBP-1; endogenous in cells; assay: Isolated enzyme assay, proTNF-α convertase (TACE), fluorogenic peptide substrate; settings: partially purified enzyme from membranes of TBP-1; 26° C. for 4 hours; read-out: concentration of compound that gave 50% inhibition of TACE
Sequence (P78536 215-824): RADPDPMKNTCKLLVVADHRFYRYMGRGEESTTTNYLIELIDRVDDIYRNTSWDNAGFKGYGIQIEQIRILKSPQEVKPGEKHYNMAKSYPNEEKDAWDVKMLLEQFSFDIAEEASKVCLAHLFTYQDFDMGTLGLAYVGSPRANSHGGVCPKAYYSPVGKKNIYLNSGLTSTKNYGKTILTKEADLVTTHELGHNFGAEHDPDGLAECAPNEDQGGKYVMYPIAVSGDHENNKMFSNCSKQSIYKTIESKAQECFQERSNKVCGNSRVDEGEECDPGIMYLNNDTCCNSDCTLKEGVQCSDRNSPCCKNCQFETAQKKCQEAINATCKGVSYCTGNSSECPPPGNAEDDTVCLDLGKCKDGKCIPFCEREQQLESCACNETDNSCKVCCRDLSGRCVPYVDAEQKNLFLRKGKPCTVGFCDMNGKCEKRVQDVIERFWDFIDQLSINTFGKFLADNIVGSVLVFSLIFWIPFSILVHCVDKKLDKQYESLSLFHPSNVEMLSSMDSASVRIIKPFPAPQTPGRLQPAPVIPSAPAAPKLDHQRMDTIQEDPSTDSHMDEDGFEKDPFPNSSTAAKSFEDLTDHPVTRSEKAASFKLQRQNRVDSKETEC
pIC50: −log10 of the molar value.

| compound | system under test | pIC50 |
| --- | --- | --- |
| Cc1cc(COc2ccc(C3(C)CCN(CC4(c5ccccc5)NC(=O)NC4=O)C3=O)cc2)c2ccccc2n1 (stereo not shown) [compound 6] | proTNF-α convertase enzyme (TACE) (Homo sapiens, UniProt P78536) | 6.89 |
